Kindly state activity coefficient for each of the entries shown.
# TEST_NAME: activity coefficient (dimensionless); of the first substance listed, at infinite dilution; xn = mol fraction of the nth substance listed
# MEASUREMENT_CONTEXT: 348.15 K; 101.33 kPa; Liquid; Chromatography; x1 = 0
Please reply with the number alone, leaving off any unit.

Give the measured activity coefficient of CC(C)=O [acetone] + CC[N+](C)(CC)CCOC.O=S(=O)([N-]S(=O)(=O)C(F)(F)F)C(F)(F)F .
0.509

Name the recorded activity coefficient for Cc1ccccc1C [1,2-dimethylbenzene] + CC[N+](C)(CC)CCOC.O=S(=O)([N-]S(=O)(=O)C(F)(F)F)C(F)(F)F .
1.96

Which activity coefficient is reported for this compound? CCOC(C)(C)C [2-ethoxy-2-methylpropane] + CC[N+](C)(CC)CCOC.O=S(=O)([N-]S(=O)(=O)C(F)(F)F)C(F)(F)F
5.71

Fill in the blank: the reported activity coefficient of CCCCCC [hexane] + CC[N+](C)(CC)CCOC.O=S(=O)([N-]S(=O)(=O)C(F)(F)F)C(F)(F)F is ____.
14.9

Could you tell me which activity coefficient is on file for C#CCCCC [1-hexyne] + CC[N+](C)(CC)CCOC.O=S(=O)([N-]S(=O)(=O)C(F)(F)F)C(F)(F)F ?
3.1

Quick one: activity coefficient for C#CCCC [1-pentyne] + CC[N+](C)(CC)CCOC.O=S(=O)([N-]S(=O)(=O)C(F)(F)F)C(F)(F)F ?
2.19

Given c1ccncc1 [pyridine] + CC[N+](C)(CC)CCOC.O=S(=O)([N-]S(=O)(=O)C(F)(F)F)C(F)(F)F , state its recorded activity coefficient.
0.615
